Data provenance is PubChem BioAssay.

- ASSAY SYSTEM: Homeobox protein Hox-A13 (Mus musculus)
- TEST PROTOCOL: inhibitors of HoxA13-DNA binding, primary screen, biochemical, fluorescence polarization, labeled oligonucleotide (AID 1185)
- RUN CONDITIONS: 15 min, higher = more signal, called active from +8 up or from −8 down
VALUE TYPE: z-score
I'd appreciate a reply containing only the number, no unit.

See these solved cases before continuing.
MOLECULE | ASSAY SYSTEM | REPORTED VALUE
CC(=O)c1ccc(C(O)C2C=CC3C(=O)N(c4ccccc4)C(=O)C3N2Nc2ccc(C#N)cc2)cc1 (stereo not drawn) | Homeobox protein Hox-A13 (Mus musculus) | -4.75
C=CCOC(=O)[C@H]1[C@@H]2C(=O)O[C@@H](c3ccccc3)[C@@H](c3ccccc3)N2[C@@H](c2ccc(OCCOC(=O)[C@H]3C[C@H]4C(=O)N[C@@H](CCCCNC(C)=O)C(=O)N4[C@H]3c3ccc(O)cc3)cc2)[C@]12C(=O)Nc1ccccc12 | Homeobox protein Hox-A13 (Mus musculus) | -1.06

Attention now shifts to the item below.
Prompt: What does the record list as z-score for CN(C)CCCCNC(=O)[C@@H]1C[C@@H]2C(=O)N[C@@H](Cc3ccccc3)C(=O)N2[C@@H]1c1cccc(OCCO)c1 ?
Completion: -3.94

====

- ASSAY SYSTEM: Fibroblast growth factor 10 (Homo sapiens) (UniProt O15520)
- Sequence (O15520 whole entry, looked up): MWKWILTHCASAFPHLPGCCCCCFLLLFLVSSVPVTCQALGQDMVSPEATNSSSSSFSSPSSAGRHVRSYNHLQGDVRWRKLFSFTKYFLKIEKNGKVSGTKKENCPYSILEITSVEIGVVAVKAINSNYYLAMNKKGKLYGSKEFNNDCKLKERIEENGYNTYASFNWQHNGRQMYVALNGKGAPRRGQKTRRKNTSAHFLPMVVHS
- TEST PROTOCOL: FGF10 binders on small-molecule microarrays, primary screen, biochemical, small-molecule microarray, 635 nm fluorescence (AID 1102)
- RUN CONDITIONS: FGF10 binding, fluorescence 635 nm, higher = more signal
Each entry below carries its reported composite z-score.
I'd appreciate a reply containing only the number, no unit.

See these solved cases before continuing.
COMPOUND | composite z-score
CC(C)[Si](C#C[Si](C(C)C)(C(C)C)C(C)C)(O[C@H](C)c1cn([C@H](CO)Cc2ccccc2)nn1)C(C)C | 0.0848
COCCOC(=O)N1C(=O)[C@@]2(c3cc(C#CC4=CCCCC4)ccc31)[C@H](c1ccc(OCCO)cc1)N1[C@H](c3ccccc3)[C@H](c3ccccc3)OC(=O)[C@H]1[C@@H]2C(=O)NC[C@H](O)c1ccccc1 | 1.35
C=CCC(OC(C)=O)[C@@H]1[C@@H](N(Cc2ccc(-c3cccc(C(F)(F)F)c3)o2)C(=O)c2ccc(C)cc2)c2cc(OCCCO)ccc2N1C(=O)c1ccc2ccccc2c1 (stereo not given in full) | 0.298
C=CCC(OC(C)=O)[C@@H]1[C@@H](N(Cc2cccc3ccccc23)C(=O)Cc2ccc(OC)cc2)c2cc(OCCCO)ccc2N1C(=O)c1ccc2ccccc2n1 (stereo not given in full) | 0.103

Attention now shifts to the item below.
Prompt: What does the record list as composite z-score for COc1cc2c(cc1OC)CN(C(=O)[C@@H]1[C@H]3C(=O)O[C@H](c4ccccc4)[C@H](c4ccccc4)N3[C@H](c3ccc(OCCO)cc3)[C@@]13C(=O)Nc1ccc(C#CC4(O)CCCCCC4)cc13)CC2 ?
Completion: 1.47

====

- TEST PROTOCOL: binders of probe aFSTL3 on microarray, primary screen, stem cell growth factor project, biochemical, small-molecule microarray, fluorescence 635/667 (AID 1064);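 further: measures binding of the biotinylated anti-FSTL3 antibody to printed compounds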
- RUN CONDITIONS: higher = more signal
Rule: composite z-score under 0.6 gives condition not met, otherwise condition met.

COMPOUND | LABEL CLASS
O=C(N1CCCCC1)[C@@]1(CCS(=O)(=O)c2ccccc2)COC(c2ccc(OCCCO)cc2)=N1 | condition met
COc1ccc([Si](C)(C)[C@@H]2[C@@H](CC(=O)N3Cc4ccccc4C[C@H]3CO)O[C@]3(C(=O)N(C)c4ccccc43)[C@H]2C)cc1 | condition not met
C=CCNC(=O)[C@@H]1[C@H]2C(=O)O[C@H](c3ccccc3)[C@H](c3ccccc3)N2[C@H](c2ccc(O)cc2)[C@@]12C(=O)N(C(=O)OCCOC)c1ccc(C#CC3(O)CCCCCC3)cc12 | condition not met
COCCCNC(=O)[C@@]1(Sc2ccc(C)cc2)CC(=O)N(C2CCCCC2)[C@@H]1c1ccc(CO)cc1 | condition met
CCOC(=O)C[C@H]1[C@H](OC(=O)c2ccccc2-c2ccccc2)[C@@H](NC(=O)c2ccc(-c3ccccc3)cc2)c2cc(OCCCO)ccc2N1C(=O)c1ccc2ccccc2n1 | condition not met

Prompt: Does composite z-score meet or surpass 0.6 for COC(=O)C1=CC(CCCO)=CC(C2CC2)N(C)C=C1C(=O)OC (stereo not drawn) ?
Completion: condition not met

Prompt: Does composite z-score meet or surpass 0.6 for C=C(COC)/C(=C/C[C@H](OC(=O)c1ccncc1)c1ccccc1OCCO)c1cnc2ccccc2c1 ?
Completion: condition not met

Prompt: Does composite z-score meet or surpass 0.6 for CCCC[C@@H]1C[C@H]1[C@@H](NC(=O)c1ccccc1)c1ccc(C(F)(F)F)cc1 ?
Completion: condition met

Prompt: Does composite z-score meet or surpass 0.6 for COCCOC(=O)N1C(=O)[C@@]2(c3cc(C#CC4=CCCCC4)ccc31)[C@H](c1ccc(O)cc1)N1[C@H](c3ccccc3)[C@H](c3ccccc3)OC(=O)[C@H]1[C@@H]2C(=O)N1CCN(c2ncccn2)CC1 ?
Completion: condition met

Prompt: Does composite z-score meet or surpass 0.6 for COC(=O)[C@@]1(Cc2ccc(OC)cc2)[C@H]2c3cc(C(=O)N(C)C)n(CCO)c3C[C@H]2CN1C(=O)c1ccccc1 ?
Completion: condition not met

Prompt: Does composite z-score meet or surpass 0.6 for NC(=O)NCC#Cc1ccc2c(c1)[C@]1(C(=O)N2)[C@H](C(=O)NC[C@H](O)c2ccccc2)[C@H]2C(=O)O[C@H](c3ccccc3)[C@H](c3ccccc3)N2[C@@H]1c1ccc(OCCO)cc1 ?
Completion: condition not met

Prompt: Does composite z-score meet or surpass 0.6 for COCCCNC(=O)[C@]1(CCS(=O)(=O)c2ccccc2)N=C(c2ccc(OCCCO)cc2)O[C@@H]1c1ccccc1N=[N+]=[N-] ?
Completion: condition met

Prompt: Does composite z-score meet or surpass 0.6 for C=CCC(OC(C)=O)[C@@H]1[C@@H](N(Cc2cc3ccccc3o2)C(=O)Cc2ccc(F)cc2)c2cc(OCCCO)ccc2N1C(=O)c1ccc2ccccc2c1 (stereo partly drawn) ?
Completion: condition not met

====

- TEST PROTOCOL: anti-His antibody binders, primary screen, artefact control for SMM control protein annotation, biochemical, small-molecule microarray, 635 nm fluorescence (AID 1128);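 further: score merges feature fluorescence with signal-to-noise for each printed compound spot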
- RUN CONDITIONS: anti-His Alexa647 antibody binding, higher = more signal
Each entry below carries its reported composite z-score.
I'd appreciate a reply containing only the number, no unit.

COMPOUND | composite z-score
NCCCCCNC(=O)[C@@H]1C[C@@H]2C(=O)NCC(=O)N2[C@@H]1c1cccc(OCCO)c1 | 2.23
CC(C)N1C(=O)c2ccccc2[C@@H](C(=O)NC2CC2)[C@@H]1c1ccc(CO)cc1 | 1.89
C=CCNC(=O)[C@H]1[C@@H]2C(=O)O[C@@H](c3ccccc3)[C@@H](c3ccccc3)N2[C@@H](c2ccc(O)cc2)[C@]12C(=O)Nc1ccc(C#CC3(O)CCCCCC3)cc12 | 2.76

Prompt: What does the record list as composite z-score for COc1ccc(C(O)C2C=CC3C(=O)N(c4ccccc4)C(=O)C3N2Nc2ccc([N+](=O)[O-])cc2)cc1 (centres undefined) ?
Completion: 2.11

Prompt: What does the record list as composite z-score for CCCCC=C[C@@H](NC(=O)c1ccc(-c2ccccc2)cc1)c1ccccc1 ?
Completion: 0.512

Prompt: What does the record list as composite z-score for COc1ccc([Si](C)(C)[C@@H]2[C@@H](CC(=O)N3Cc4ccccc4C[C@H]3CO)O[C@]3(C(=O)N(Cc4cccc(N5C(=O)c6cccc7cccc5c67)c4)c4ccccc43)[C@H]2C)cc1 ?
Completion: 0.846

Prompt: What does the record list as composite z-score for COC1OC[C@]2(C)[C@H]3C4=C(CN2C(=O)OC(C)(C)C)[C@H](C)C(CO)C(CO)C4CC[C@@H]13 (some centres undefined) ?
Completion: 2.1

Prompt: What does the record list as composite z-score for CCCCN1CC=CC23O[C@@H]4/C=C\CCC(C)OC(=O)C4[C@H]2C(=O)N(C(CO)C(C)C)[C@@H]3C1=O (some centres undefined) ?
Completion: -0.0545

Prompt: What does the record list as composite z-score for COc1ccc(NC(=O)O[C@H]2[C@H](OC(=O)Nc3ccccc3)[C@H](OC(=O)Nc3ccccc3)[C@@H](OC)O[C@@H]2CO)cc1 ?
Completion: 1.65

Prompt: What does the record list as composite z-score for CN(C)CCCNC(=O)[C@@H]1c2ccccc2C(=O)N(Cc2ccccc2Cl)[C@H]1c1ccc(CO)cc1 ?
Completion: 1.3

====

Each entry below carries its reported z-score.
- TEST PROTOCOL: E. coli acrAB mutant growth effects, primary screen, E. coli filamentation inducers, strain DRC39, OD650, 48 h (AID 1179);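 further: screen aims at cell division blockers that make cells filament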
- RUN CONDITIONS: E. coli DRC39 delta-acrAB growth, higher = more signal, called active from +8 up or from −8 down
I'd appreciate a reply containing only the number, no unit.

CPD SMILES | VALUE TYPE | REPORTED VALUE
COCCCNC(=O)[C@@]1(Cc2ccccc2N=[N+]=[N-])COC(c2ccc(OCCCO)cc2)=N1 | z-score | 0.746
CC(C)C[C@@H]1NC(=O)[C@@H]2C[C@H](C(=O)NCCCCN(C)C)[C@H](c3cccc(OCCO)c3)N2C1=O | z-score | -0.653

Prompt: What does the record list as z-score for CCCCO[C@H]1C[C@H]2C(I)=C[C@@H]1C(=O)[C@]21CO1 ?
Completion: -1.05

Prompt: What does the record list as z-score for [N-]=[N+]=NCc1ccccc1[C@H]1OC(c2ccc(OCCCO)cc2)=N[C@@]1(CCS(=O)(=O)c1ccccc1)C(=O)N1CCCCC1 ?
Completion: -0.846
